B1: Cyclin-F, residues 28 to 80; numbered along this chain, P41002 (parent)
chain: RNLTILSLPEDVLFHILKWLSVEDILAVRAVHSQLKDLVDNHASVWACASFQE

Variants of: B1
assayComment: abundance fitness (aPCA) (normalised: wild type 0, dead -1); higher = more abundant; growth selection in yeast, the domain comes from the species named
conditionContext: Homo sapiens
If the reported abundance fitness equals or exceeds -0.3, assign condition met. If not, assign condition not met.

# residueCodes, classAssignment
records = [
    ("RNLTILSLPEDVLFHILKWLSVEDILAVYAVHSQLKDLVDNHASVWACASFQE [R29Y]", "condition not met"),
    ("RNLTILSLPEDVLFHWLKWLSVEDILAVRAVHSQLKDLVDNHASVWACASFQE [I16W]", "condition not met"),
    ("RNLTILSLPEPVLFHILKWLSVEDILAVRAVHSQLKDLVDNHASVWACASFQE [D11P]", "condition met"),
    ("RNLTILSLPEDVLFHILKWLSVSDILAVRAVHSQLKDLVDNHASVWACASFQE [E23S]", "condition met"),
    ("RNLTILSLPEDVLFHILKWLSVEDIQAVRAVHSQLKDLVDNHASVWACASFQE [L26Q]", "condition met"),
    ("RNLTILSLPEDVLFHILKWLSVEYILAVRAVHSQLKDLVDNHASVWACASFQE [D24Y]", "condition not met"),
    ("RNLTILSKPEDVLFHILKWLSVEDILAVRAVHSQLKDLVDNHASVWACASFQE [L8K]", "condition not met"),
    ("RNLTILSLPEDVLFHILKWLSVEDILAVRAVHSQLKDLVDNHASVWACASFQS [E53S]", "condition not met"),
    ("RNLTILSLPEDVLFHILKWLSVEDILAVRAVHSQLKDLVDNHASVWACLSFQE [A49L]", "condition not met"),
    ("RNLTILSLPEDVLFHILKWLSVEDILAVRAVHSQLKDLVDNRASVWACASFQE [H42R]", "condition met"),
    ("RNLTILSLPEDVLFHILKWLSVEDILAVRAVHSQLKDLDDNHASVWACASFQE [V39D]", "condition not met"),
    ("RNLTILLLPEDVLFHILKWLSVEDILAVRAVHSQLKDLVDNHASVWACASFQE [S7L]", "condition not met"),
    ("RNLTILSLPEDVLFHILKWLSVEDILAVRAVHSQLKDLVDNHASVWACAKFQE [S50K]", "condition met"),
    ("RNLTILSLPEDVLFHILKWLSVEDILAVRAVHGQLKDLVDNHASVWACASFQE [S33G]", "condition not met"),
    ("RNLTILSLPEDVLFWILKWLSVEDILAVRAVHSQLKDLVDNHASVWACASFQE [H15W]", "condition not met"),
    ("RNLTILSLPEDVLFHILKWLSVEDILAVRAVHSQLKDLVDNHASVWACAYFQE [S50Y]", "condition not met"),
    ("RNLTILELPEDVLFHILKWLSVEDILAVRAVHSQLKDLVDNHASVWACASFQE [S7E]", "condition met"),
    ("RNLTILSLPEDVLFHILKWLSVEDILAVRAVHSQQKDLVDNHASVWACASFQE [L35Q]", "condition not met"),
    ("RNLTILSLPEDVLFHILKNLSVEDILAVRAVHSQLKDLVDNHASVWACASFQE [W19N]", "condition met"),
    ("RNLTILCLPEDVLFHILKWLSVEDILAVRAVHSQLKDLVDNHASVWACASFQE [S7C]", "condition not met"),
    ("RNLTILSLPEDVLFHILKWLFVEDILAVRAVHSQLKDLVDNHASVWACASFQE [S21F]", "condition not met"),
    ("RNLTILSLPEDVLSHILKWLSVEDILAVRAVHSQLKDLVDNHASVWACASFQE [F14S]", "condition met"),
    ("RNLTILSLPEDVWFHILKWLSVEDILAVRAVHSQLKDLVDNHASVWACASFQE [L13W]", "condition met"),
    ("RNLTILSLPEDVLFHILKWLSVEDILYVRAVHSQLKDLVDNHASVWACASFQE [A27Y]", "condition not met"),
    ("RNLTILSLPEDVLFHILKWLSVEDILAGRAVHSQLKDLVDNHASVWACASFQE [V28G]", "condition not met"),
    ("RNLTILSLPEDVLFHILKWLSVEDCLAVRAVHSQLKDLVDNHASVWACASFQE [I25C]", "condition not met"),
    ("RNLTILSLPEDVLFHILKWLSVEDILAVRAVHSQLKDLVDDHASVWACASFQE [N41D]", "condition not met"),
    ("RNLTILSLPEDVLFHILKWHSVEDILAVRAVHSQLKDLVDNHASVWACASFQE [L20H]", "condition not met"),
    ("RNLTILSLPEDVLFHILKWLSVEDILAVRAVHSQLKDLVDNHASVWARASFQE [C48R]", "condition not met"),
    ("RNLTILSLPEDVLMHILKWLSVEDILAVRAVHSQLKDLVDNHASVWACASFQE [F14M]", "condition met"),
    ("RNLTILSLPEDVLFIILKWLSVEDILAVRAVHSQLKDLVDNHASVWACASFQE [H15I]", "condition met"),
    ("RNLTILSLPEDVLFHILKWLSGEDILAVRAVHSQLKDLVDNHASVWACASFQE [V22G]", "condition not met"),
    ("RNLTILSLPEDVLFHILKWPSVEDILAVRAVHSQLKDLVDNHASVWACASFQE [L20P]", "condition not met"),
    ("RNLTILSLPEDVLFHILKWLSVEDILAVRLVHSQLKDLVDNHASVWACASFQE [A30L]", "condition met"),
    ("RNLTILSLPEDVLFHILKWLSVEDILAVRAVHSQLKDLVDNHAAVWACASFQE [S44A]", "condition met"),
    ("RNLTILSLPEDVLFHILKWLSVEDILAVRAVGSQLKDLVDNHASVWACASFQE [H32G]", "condition not met"),
    ("RNLTILSLPEDVLFHILKWLSVEDILAVRAVHSQLKDLVDNHASVWAGASFQE [C48G]", "condition met"),
    ("RNLTILSLPEDVLFHILKWLSVEDILAVRAVHSQLKDLVDNHASVWAFASFQE [C48F]", "condition not met"),
    ("RNLTILSLPEDVLFHILKWLSVEDILAVRAVHSQLKDLVDNHASVWACASFME [Q52M]", "condition met"),
    ("RNLTILSLPEDVLFHILKWLSVEDDLAVRAVHSQLKDLVDNHASVWACASFQE [I25D]", "condition not met"),
    ("RNLTILSLPEDVLFHILKWLSHEDILAVRAVHSQLKDLVDNHASVWACASFQE [V22H]", "condition met"),
    ("RNLTILSLPEDVLFHILKWLSVEDYLAVRAVHSQLKDLVDNHASVWACASFQE [I25Y]", "condition not met"),
    ("RNLTILSLPEDVLFHILKWLSVEDILAVLAVHSQLKDLVDNHASVWACASFQE [R29L]", "condition not met"),
    ("RNLTILSLPEDCLFHILKWLSVEDILAVRAVHSQLKDLVDNHASVWACASFQE [V12C]", "condition not met"),
    ("RNLTILSLPEDVLFHILKWLSVEKILAVRAVHSQLKDLVDNHASVWACASFQE [D24K]", "condition not met"),
]
